Listed here are binders together with their documented koff.
Target Desc: T1, cynoSIRPα (NP_001271679), Extracellular Domain + His-Tag (cynomolgus monkey)
T1 construct: also called CySIRPα NP_001271679; not shown: His-Tag
T1 chain: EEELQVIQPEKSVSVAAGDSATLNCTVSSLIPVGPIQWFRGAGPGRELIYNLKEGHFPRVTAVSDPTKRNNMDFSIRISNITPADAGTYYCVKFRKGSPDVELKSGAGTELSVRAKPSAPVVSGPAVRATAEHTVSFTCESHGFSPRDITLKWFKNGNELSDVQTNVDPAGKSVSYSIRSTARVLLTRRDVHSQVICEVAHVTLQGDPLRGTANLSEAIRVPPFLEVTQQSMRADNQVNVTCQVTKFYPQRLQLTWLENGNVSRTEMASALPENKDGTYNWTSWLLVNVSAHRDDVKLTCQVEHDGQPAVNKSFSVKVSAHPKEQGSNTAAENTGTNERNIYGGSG
Test Details: SPR, antibody captured on Protein A/G, ECD-His analyte, 1:1 fit
Recorded Metric: koff

Antibody E7 (antibody, human IgG1, kappa, L234A L235A, V domains shown) VH: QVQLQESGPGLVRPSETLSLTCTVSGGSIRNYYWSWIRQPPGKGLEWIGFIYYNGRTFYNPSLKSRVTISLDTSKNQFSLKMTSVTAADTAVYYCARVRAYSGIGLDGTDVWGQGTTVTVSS VL: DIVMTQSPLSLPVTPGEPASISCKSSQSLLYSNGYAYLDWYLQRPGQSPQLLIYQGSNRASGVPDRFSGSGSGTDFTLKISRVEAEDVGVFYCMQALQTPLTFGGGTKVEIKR ... 0.00346 s⁻¹
Antibody E12 (antibody, human IgG1, kappa, L234A L235A, V domains shown) VH: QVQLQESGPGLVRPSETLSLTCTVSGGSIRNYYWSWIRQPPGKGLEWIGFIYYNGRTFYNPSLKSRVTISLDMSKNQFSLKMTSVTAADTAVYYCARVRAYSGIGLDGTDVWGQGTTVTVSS VL: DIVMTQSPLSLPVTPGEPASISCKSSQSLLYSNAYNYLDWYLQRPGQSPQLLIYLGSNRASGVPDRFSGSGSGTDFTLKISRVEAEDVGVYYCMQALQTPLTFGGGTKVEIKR ... 0.0129 s⁻¹
Antibody E3 (antibody, human IgG1, kappa, L234A L235A, V domains shown) VH: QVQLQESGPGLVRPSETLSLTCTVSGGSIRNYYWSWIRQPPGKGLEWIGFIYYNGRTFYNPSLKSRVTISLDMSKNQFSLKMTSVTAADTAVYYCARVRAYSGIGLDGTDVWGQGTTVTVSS VL: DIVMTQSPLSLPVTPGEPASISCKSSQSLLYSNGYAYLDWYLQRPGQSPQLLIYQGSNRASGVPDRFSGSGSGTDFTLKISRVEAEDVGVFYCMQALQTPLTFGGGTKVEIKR ... 0.00291 s⁻¹
Antibody E5 (antibody, human IgG1, kappa, L234A L235A, V domains shown) VH: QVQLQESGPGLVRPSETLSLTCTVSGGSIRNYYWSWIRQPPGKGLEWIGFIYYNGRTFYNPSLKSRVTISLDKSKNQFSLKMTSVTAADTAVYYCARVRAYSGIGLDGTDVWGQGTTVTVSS VL: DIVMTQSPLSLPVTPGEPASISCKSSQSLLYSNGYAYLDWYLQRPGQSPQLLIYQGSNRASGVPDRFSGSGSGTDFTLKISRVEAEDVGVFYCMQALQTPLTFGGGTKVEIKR ... 0.00471 s⁻¹
Antibody E9 (antibody, human IgG1, kappa, L234A L235A, V domains shown) VH: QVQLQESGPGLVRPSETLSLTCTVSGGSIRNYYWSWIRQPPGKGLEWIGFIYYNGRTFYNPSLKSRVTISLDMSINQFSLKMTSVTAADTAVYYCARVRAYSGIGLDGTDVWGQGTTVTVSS VL: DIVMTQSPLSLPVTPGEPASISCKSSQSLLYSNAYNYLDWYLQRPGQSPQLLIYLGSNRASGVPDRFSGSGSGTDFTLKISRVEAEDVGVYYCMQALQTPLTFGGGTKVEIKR ... 0.014 s⁻¹
